# TESTED_ON: DRB1*0701
# PROCEDURE_TEXT: binding to purified HLA
# DETAILS: chains peptide; modification not given
READOUT: IC50 (nM)

[[record]]
binder = "AKFVAAWTLKAAA [SEQ ID NO: 3]"
value_unit = "nM"
readout_number = 97

